Overview of recorded cytotoxicity at 10 µM for various compounds
EXPERIMENT_DESCRIPTION: Toxicity liver stage against HepG2, at 10uM
Assay type: cell-based
Design: test concentration 10 uM, cell line HepG2-A16-CD81EGFP
DETAILS: human, HepG2-A16-CD81EGFP cells; read-out: INHIBITION

{"COMPOUND": "CS(=O)(=O)NCc1cc2n(n1)CCCN(Cc1ccc(Cl)s1)C2", "cytotoxicity at 10 µM [%]": 2.81}
{"COMPOUND": "COCCN1CCOCC2(CCN(c3cnccn3)CC2)C1", "cytotoxicity at 10 µM [%]": -87.4}
{"COMPOUND": "C=Cc1ccc(C(=O)N2CCCC(Nc3ccc(OC)cc3)C2)cc1 (stereo not drawn)", "cytotoxicity at 10 µM [%]": -12}

====

EXPERIMENT_DESCRIPTION: Toxicity liver stage against HepG2, at 10uM
Format: cell-based
Set-up: test concentration 10 uM, cell line HepG2-A16-CD81EGFP
DETAILS: human, HepG2-A16-CD81EGFP cells; read-out: INHIBITION
# Lookup of reported cytotoxicity at 10 µM keyed by entry
READOUT: cytotoxicity at 10 µM (%)

{"COMPOUND": "Cc1ncc2c(c1CNC(=O)C1(C)CC1)CCNC2", "READOUT": "cytotoxicity at 10 µM", "OBSERVED_MEASUREMENT": -50.3}
{"COMPOUND": "COc1ccccc1CN(CC1CCCO1)C(=O)c1csnn1 (stereo not drawn)", "READOUT": "cytotoxicity at 10 µM", "OBSERVED_MEASUREMENT": -0.636}
{"COMPOUND": "CCN(Cc1ccncc1)c1cc(C2CCNCC2)nc(C)n1", "READOUT": "cytotoxicity at 10 µM", "OBSERVED_MEASUREMENT": 4.34}
{"COMPOUND": "Cc1noc(C)c1CN1C[C@@H](NC(=O)N(C)C)[C@H](C(C)C)C1", "READOUT": "cytotoxicity at 10 µM", "OBSERVED_MEASUREMENT": 5.35}
{"COMPOUND": "CCOCC(=O)Nc1nccn1Cc1ccc(Br)cc1", "READOUT": "cytotoxicity at 10 µM", "OBSERVED_MEASUREMENT": -44.8}
{"COMPOUND": "O=C(c1ccc[nH]1)N1CCN(C(c2ccccc2)C(F)(F)F)CC1 (stereo not drawn)", "READOUT": "cytotoxicity at 10 µM", "OBSERVED_MEASUREMENT": 8.3}
{"COMPOUND": "O=C1N(CCO)CCCC12CCN(Cc1noc(C3CCCC3)n1)C2 (stereo not drawn)", "READOUT": "cytotoxicity at 10 µM", "OBSERVED_MEASUREMENT": -0.973}
{"COMPOUND": "CCC(CNS(C)(=O)=O)Oc1ccccc1C (stereo not drawn)", "READOUT": "cytotoxicity at 10 µM", "OBSERVED_MEASUREMENT": 17.3}

====

EXPERIMENT_DESCRIPTION: Toxicity liver stage against HepG2, at 10uM
Format: cell-based
Set-up: test concentration 10 uM, cell line HepG2-A16-CD81EGFP
DETAILS: human, HepG2-A16-CD81EGFP cells; read-out: INHIBITION

{"MOLECULE": "Fc1cccc(N2CCCC3(C2)CN(c2ncccn2)CCO3)c1 (centres undefined)", "cytotoxicity at 10 µM (%)": 17.4}
{"MOLECULE": "CCCN(CCc1ccccn1)C(=O)Cn1cnnn1", "cytotoxicity at 10 µM (%)": 2.52}
{"MOLECULE": "O=C(NC[C@H]1OC[C@@H](NC2CCC(F)(F)CC2)[C@@H]1O)N1CCOCC1", "cytotoxicity at 10 µM (%)": -0.0603}
{"MOLECULE": "Cc1cc(NC(=O)Cn2ccc(-c3ccc4c(c3)OCO4)n2)n(C)n1", "cytotoxicity at 10 µM (%)": 6.28}

src = ChEMBL document CHEMBL4513216
